# Test system: Poly(dA-dT)oligonucleotide
# assay name: Binding affinity to poly(dA:dT) dsDNA (unknown origin) assessed as increase in fluorescence intensity by fluorescence spectroscopy
# Assay type: nucleic-acid assay
Active and inactive are the calls of the source. The calls are words filed in the database; no cut-off is given here.
Field 'call' accepts active, inactive

>  <test smiles>
C[n+]1ccc(-c2c3ccccc3c(-c3cc[n+](C)cc3)c3ccccc23)cc1

>  <assay system>
Poly(dA-dT)oligonucleotide

>  <label>
active

$$$$
>  <test smiles>
C[n+]1ccc(-c2c3ccccc3c(-c3cc[n+](C)cc3)c3cc(C(C)(C)C)ccc23)cc1

>  <assay system>
Poly(dA-dT)oligonucleotide

>  <label>
active

$$$$
>  <test smiles>
C[n+]1ccccc1-c1c2ccccc2c(-c2cccc[n+]2C)c2ccccc12

>  <assay system>
Poly(dA-dT)oligonucleotide

>  <label>
inactive

$$$$
>  <test smiles>
Cc1ccc2c(-c3cc[n+](C)cc3)c3ccccc3c(-c3cc[n+](C)cc3)c2c1

>  <assay system>
Poly(dA-dT)oligonucleotide

>  <label>
active

$$$$
>  <test smiles>
C[n+]1cc(-c2c3ccccc3c(-c3cc4ccccc4[n+](C)c3)c3ccccc23)cc2ccccc21

>  <assay system>
Poly(dA-dT)oligonucleotide

>  <label>
active

$$$$

Ask | Would you mind telling me which call this test gave C[n+]1cccc(-c2c3ccccc3c(-c3ccc[n+](C)c3)c3ccccc23)c1 ?
Reply | active

Ask | Consider next the compound CCc1ccc2c(-c3cc[n+](C)cc3)c3ccccc3c(-c3cc[n+](C)cc3)c2c1 in the same way.
Reply | active

Values from ChEMBL document CHEMBL4627339
